Test system: Candida tropicalis
Test: Antimicrobial activity against Candida tropicalis ATCC 1369 after 24 hrs by broth microdilution assay
Format: functional
Conditions: ATCC 1369, 24 h
Label condition met when MIC < 30 µg/mL; otherwise condition not met.

{"columns": ["compound", "assigned_category"],
 "data": [
  ["CC(C)c1csc(-c2nnc3sc(-c4ccc(Cl)cc4)nn23)n1", "condition not met"],
  ["CC(C)c1csc(-c2nnc3sc(-c4ccc([N+](=O)[O-])cc4)nn23)n1", "condition met"],
  ["Cc1ccc(/C=N/n2c(S)nnc2-c2nc(C(C)C)cs2)cc1", "condition not met"],
  ["COc1ccc(C2(C)OC(c3nc(C(C)C)cs3)=NN2C(C)=O)cc1 (stereo unspecified)", "condition met"],
  ["CC(=O)N1N=C(c2nc(C(C)C)cs2)OC1(C)C", "condition not met"]
]}

MIC under 30 µg/mL? Item: CC(=O)N1N=C(c2nc(C(C)C)cs2)OC1(C)c1ccc(Br)cc1 (stereo unspecified)
condition not met

MIC under 30 µg/mL? Item: "COc1cc(/C=N/n2c(S)nnc2-c2nc(C(C)C)cs2)ccc1O"
condition not met

MIC under 30 µg/mL? Item: CC(=O)N1N=C(c2nc(C(C)C)cs2)OC1(C)c1ccc(Cl)cc1 (stereo unspecified)
condition not met

MIC under 30 µg/mL? Item: "CC(C)c1csc(-c2nnc(S)n2/N=C/c2ccccc2)n1"
condition not met

MIC under 30 µg/mL? Item: "CC(C)c1csc(-c2nnc(S)n2/N=C/c2ccc[nH]2)n1"
condition not met

MIC under 30 µg/mL? Item: "CC(C)c1csc(-c2nnc(S)n2-c2ccccc2)n1"
condition met

====

Reported Activity values are given for each entry in this list.
System: A549
Assay: Cytotoxicity against human A549 cells at 250 uM
Assay type: cell-based
Conditions: a549, 250 µM
Value expressed in %; do not type the unit.

Example entries begin here.
{"columns": ["compound_smiles", "experimental_endpoint", "value_reported"],
 "data": [
  ["Cc1ccc(/C=N/n2c(S)nnc2-c2nc(C(C)C)cs2)cc1", "Activity", 50],
  ["CC(C)c1csc(-c2nnc(S)n2/N=C/c2ccccc2Cl)n1", "Activity", 50]
]}

Field: Activity (A549). Entry: "CC(C)c1csc(-c2nnc(-c3ccc([N+](=O)[O-])cc3)o2)n1"
50

====

Test system: Candida tropicalis
Experiment: Antimicrobial activity against Candida tropicalis ATCC 1369 after 24 hrs by broth microdilution assay
Type: functional
Details: ATCC 1369, 24 h
experimental_endpoint: MIC (µg/mL)
Value expressed in µg/mL; do not type the unit.

{"columns": ["compound", "test_system", "MIC, µg/mL"],
 "data": [
  ["CC(C)c1csc(-c2nnc(-c3ccc(Cl)cc3)o2)n1", "Candida tropicalis", 125]
]}

Entry "CC(C)c1csc(-c2nnc(S)n2/N=C/c2ccccc2O)n1" has what MIC?
125

Entry CC(=O)N1N=C(c2nc(C(C)C)cs2)OC1(C)c1ccccc1 (stereo not drawn) has what MIC?
31.2

Entry "CC(C)c1csc(-c2nnc(S)n2/N=C/C=C/c2ccccc2)n1" has what MIC?
31.2

Entry "COc1cc(/C=N/n2c(S)nnc2-c2nc(C(C)C)cs2)cc(OC)c1OC" has what MIC?
125

Entry CC(=O)N1N=C(c2nc(C(C)C)cs2)OC1(C)c1ccc(O)cc1 (stereo not drawn) has what MIC?
31.2

Entry "CC(C)c1csc(-c2nnc(S)n2/N=C/c2ccccc2Cl)n1" has what MIC?
31.2

====

System: Candida tropicalis
Test: Antimicrobial activity against Candida tropicalis ATCC 1369 after 24 hrs by broth microdilution assay
Format: functional
Details: ATCC 1369, 24 h
experimental_endpoint: MIC (µg/mL)
Value expressed in µg/mL; do not type the unit.

{"columns": ["molecule", "unit_info", "MIC"],
 "data": [
  ["CC(C)c1csc(-c2nnc3sc(-c4ccccc4)nn23)n1", "µg/mL", 125],
  ["CC(C)c1csc(-c2nnc(S)n2/N=C/c2ccc(Br)cc2)n1", "µg/mL", 62.5],
  ["CC(C)c1csc(-c2nnc3sc(-c4ccc(O)cc4)nn23)n1", "µg/mL", 125],
  ["Cc1ccc(-c2nnc(-c3nc(C(C)C)cs3)o2)cc1", "µg/mL", 125],
  ["COc1ccc(/C=N/n2c(S)nnc2-c2nc(C(C)C)cs2)cc1", "µg/mL", 62.5],
  ["CSc1nnc(-c2nc(C(C)C)cs2)n1-c1ccccc1", "µg/mL", 16],
  ["Cc1ccc(-c2nn3c(-c4nc(C(C)C)cs4)nnc3s2)cc1", "µg/mL", 125],
  ["CC(=O)N1N=C(c2nc(C(C)C)cs2)OC1(C)c1ccc([N+](=O)[O-])cc1 (stereo unspecified)", "µg/mL", 62.5],
  ["CC(C)c1csc(-c2nnc(S)n2/N=C/c2ccc(N(C)C)cc2)n1", "µg/mL", 125]
]}

Continue with the next molecule.
Entry "CC(C)c1csc(-c2nnc(-c3ccc([N+](=O)[O-])cc3)o2)n1" has what MIC?
16
